B1: library; numbered along this chain (parent)
chain: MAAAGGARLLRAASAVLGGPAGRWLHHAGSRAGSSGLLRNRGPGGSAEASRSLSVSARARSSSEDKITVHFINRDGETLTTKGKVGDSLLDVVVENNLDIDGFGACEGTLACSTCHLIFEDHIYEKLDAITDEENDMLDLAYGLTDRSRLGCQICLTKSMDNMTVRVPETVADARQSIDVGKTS

- Variants of: B1
- PROCEDURE_SUMMARY: scaled log2 fold change in cell abundance, elesclomol vs control (0 = silent mean, 1 = nonsense mean) (scaled log2 ratio); higher = higher viability under elesclomol (loss of FDX1 cuproptosis function);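 note: variant abundance is its share of total variant reads in each endpoint sample, from next-generation sequencing of the integrated ORF PCR-amplified out of genomic DNA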
- EXPERIMENTAL_SETUP: with ABC1 FDX1 KO; elesclomol 5 nM; glucose 10 mM; 14 days
ASSAY_READOUT: scaled log2 fold change
Just the number.

Give reported scaled log2 fold change value for `T78S`
0.0645

Give reported scaled log2 fold change value for `V165H`
1.12

Give reported scaled log2 fold change value for `E120L`
0.202

Give reported scaled log2 fold change value for `T157C`
0.0208

Give reported scaled log2 fold change value for `S184E`
-0.0286

Give reported scaled log2 fold change value for `E77D`
-0.61

Give reported scaled log2 fold change value for `C112P`
1.17

Give reported scaled log2 fold change value for `I123V`
-0.0405

Give reported scaled log2 fold change value for `E133T`
0.0196

Give reported scaled log2 fold change value for `A105N`
-0.246

Give reported scaled log2 fold change value for `D121L`
-0.202

Give reported scaled log2 fold change value for `L37S`
0.557

Give reported scaled log2 fold change value for `H122K`
-0.152

Give reported scaled log2 fold change value for `H70E`
0.148

Give reported scaled log2 fold change value for `A13G`
0.519

Give reported scaled log2 fold change value for `N73M`
-0.526

Give reported scaled log2 fold change value for `R74W`
0.234

Give reported scaled log2 fold change value for `D139L`
0.0653

Give reported scaled log2 fold change value for `D179K`
0.53

Give reported scaled log2 fold change value for `S54C`
-0.019

Give reported scaled log2 fold change value for `L38M`
0.492

Give reported scaled log2 fold change value for `N40K`
-0.0431

Give reported scaled log2 fold change value for `S50M`
-0.234

Give reported scaled log2 fold change value for `P20F`
-0.201

Give reported scaled log2 fold change value for `L79V`
0.047

Give reported scaled log2 fold change value for `S88V`
-0.223

Give reported scaled log2 fold change value for `V55Q`
0.177

Give reported scaled log2 fold change value for `E64S`
-0.691

Give reported scaled log2 fold change value for `A21Y`
-0.187

Give reported scaled log2 fold change value for `H116C`
0.0577

Give reported scaled log2 fold change value for `L37Y`
0.353

Give reported scaled log2 fold change value for `P43V`
0.149

Give reported scaled log2 fold change value for `N135Y`
0.0894

Give reported scaled log2 fold change value for `D91F`
0.29

Give reported scaled log2 fold change value for `S46F`
0.279

Give reported scaled log2 fold change value for `S35L`
-0.141

Give reported scaled log2 fold change value for `Y142L`
-0.24

Give reported scaled log2 fold change value for `F103Y`
0.192

Give reported scaled log2 fold change value for `L17I`
-0.552

Give reported scaled log2 fold change value for `S34E`
-0.124

Give reported scaled log2 fold change value for `E133V`
0.153

Give reported scaled log2 fold change value for `N135L`
0.151

Give reported scaled log2 fold change value for `R60S`
0.275

Give reported scaled log2 fold change value for `A49N`
-0.529

Give reported scaled log2 fold change value for `R58N`
-0.417

Give reported scaled log2 fold change value for `A7T`
0.268

Give reported scaled log2 fold change value for `G104N`
0.899
